Exercise: for every item that follows, state its recorded Ki.
# system.under.test: 5-hydroxytryptamine receptor 6 (Homo sapiens, UniProt P50406)
# Sequence (P50406 whole entry): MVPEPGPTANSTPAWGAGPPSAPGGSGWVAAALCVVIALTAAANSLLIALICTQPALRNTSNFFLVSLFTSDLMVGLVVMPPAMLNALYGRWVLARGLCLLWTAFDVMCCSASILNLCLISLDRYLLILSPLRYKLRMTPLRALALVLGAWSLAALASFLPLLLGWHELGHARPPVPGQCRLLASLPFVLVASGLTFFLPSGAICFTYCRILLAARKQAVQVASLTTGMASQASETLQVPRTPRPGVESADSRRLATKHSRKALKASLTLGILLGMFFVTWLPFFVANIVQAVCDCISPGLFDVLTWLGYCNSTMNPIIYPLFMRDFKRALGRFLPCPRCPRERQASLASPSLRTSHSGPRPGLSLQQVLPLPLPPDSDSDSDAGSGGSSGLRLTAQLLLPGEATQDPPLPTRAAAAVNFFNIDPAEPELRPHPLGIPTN
Answers are plain numbers, in nM.

Here's what some known entries look like.
>>> numeric_readout("CN(C)CCc1cn(Sc2ccccc2)c2ccccc12")
90
>>> numeric_readout("CCc1[nH]c2ccc(OC)cc2c1C[C@H]1CCCN1C")
1.8
>>> numeric_readout("CN(C)[C@H]1CCc2c(cccc2NS(=O)(=O)c2ccccc2)C1")
90
>>> numeric_readout("CCc1[nH]c2ccc(OC)cc2c1C[C@@H]1CCCN1C")
220

# next molecule below
Per the record, CN(C)[C@@H]1CCc2c(cccc2NS(=O)(=O)c2ccccc2)C1 has Ki of 49
